- test-details: Drug repurposing screens with cells derived from glioblastoma tumor samples (AID 1345199)
- experimental-context: GBM patient neurospheres viability, ATP luminescence, 48 h; at 21.2 µM (top of the series); tumour line B
Inconclusive results are not listed.
Just a reminder that ties go to rule not met: only activity, negative = cell killing strictly below -10% counts as rule met.

Some solved cases for reference:
CCOC(=O)Oc1c(OC)cc(C(=O)O[C@@H]2C[C@@H]3CN4CCc5c([nH]c6cc(OC)ccc56)[C@H]4C[C@@H]3[C@H](C(=O)OC)[C@H]2OC)cc1OC	rule not met
NC(=O)c1cc[n+](CC2=C(C(=O)O)N3C(=O)[C@@H](NC(=O)C(c4ccccc4)S(=O)(=O)[O-])[C@H]3SC2)cc1 (stereo not given in full)	rule not met
CCCOc1cc(N)ccc1C(=O)OCCN(CC)CC	rule not met

Prompt: Confirm or reject: activity, negative = cell killing of O=C(O)Cc1cc(I)c(Oc2ccc(O)c(I)c2)c(I)c1 lies strictly below -10%
Response: rule not met

Prompt: Confirm or reject: activity, negative = cell killing of CCSc1ccc2c(c1)N(CCCN1CCN(C)CC1)c1ccccc1S2 lies strictly below -10%
Response: rule not met

Prompt: Confirm or reject: activity, negative = cell killing of CN[C@@H]1[C@@H](O[C@H]2O[C@H](CO)[C@@H](N)[C@H](O)[C@H]2O)O[C@H]2C[C@@H](N)[C@@H](O[C@H]3[C@H](O)[C@@H](O)[C@H](N)C[C@@H]3N)O[C@@H]2[C@@H]1O lies strictly below -10%
Response: rule not met
